All figures here come from patent US20180327506A1.

Recorded % live, FAB-saporin killing assay values for a group of binders are listed next.
STUDY_TARGET: T1, full-length mature human EMR2 (residues Q24-N823) with N-terminal aspartic acid/lysine epitope tag, … (human, UniProt Q9UHX3 24-823)
T1 sequence: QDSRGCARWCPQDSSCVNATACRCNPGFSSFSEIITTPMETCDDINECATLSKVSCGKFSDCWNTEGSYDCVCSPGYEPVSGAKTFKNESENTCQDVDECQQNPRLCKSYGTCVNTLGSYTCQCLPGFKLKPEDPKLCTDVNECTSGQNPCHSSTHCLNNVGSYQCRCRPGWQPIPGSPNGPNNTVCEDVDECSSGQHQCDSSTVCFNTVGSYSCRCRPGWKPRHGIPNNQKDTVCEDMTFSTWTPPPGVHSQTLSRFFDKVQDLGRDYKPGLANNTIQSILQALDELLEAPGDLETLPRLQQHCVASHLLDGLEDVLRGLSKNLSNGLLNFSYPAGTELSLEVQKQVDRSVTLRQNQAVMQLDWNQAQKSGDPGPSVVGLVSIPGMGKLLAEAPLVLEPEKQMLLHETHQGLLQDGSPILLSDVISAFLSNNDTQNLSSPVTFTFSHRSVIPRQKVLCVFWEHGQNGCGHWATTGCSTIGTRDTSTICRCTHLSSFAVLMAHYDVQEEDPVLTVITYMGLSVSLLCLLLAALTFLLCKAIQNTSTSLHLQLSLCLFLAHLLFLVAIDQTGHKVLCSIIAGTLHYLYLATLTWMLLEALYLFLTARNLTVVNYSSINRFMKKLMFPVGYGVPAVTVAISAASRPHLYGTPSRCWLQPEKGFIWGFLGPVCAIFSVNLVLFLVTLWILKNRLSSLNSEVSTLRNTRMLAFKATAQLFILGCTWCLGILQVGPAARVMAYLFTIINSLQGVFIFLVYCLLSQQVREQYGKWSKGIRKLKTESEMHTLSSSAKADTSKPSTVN
TEST: cell-based or functional assay

{"BINDER": "SC93.160 (antibody, IgG2a, V domains shown, murine, IgG2a) VH: QILLVQSGPELKKPGETVKISCKASGYTFTDYGIHWVKQAPGKGLKWMGWINTKTGVPTYADDFKGRFAFSLETSASTAYLQINNLKIEDTATYFCAGGNSLYYGSRPYWGQGTLVTVSA VL: DIVMTQSPSSLTVTAGEKVTMSCKSSQSLLNSGNQKNYLTWYQQKPGQPPKLLIYWASTRESGVPDRFTGSGSGTDFTLTISSVQAEDLAVYYCQNDYSYPTFGSGTKLELK", "% live, FAB-saporin killing assay, %": 96.8}
{"BINDER": "SC93.219 (antibody, IgG2b, V domains shown, murine, IgG2b) VH: EVQLVESGGGLVQPGGSRKLSCAASGFTFSSYGMHWVRQAPEKGLEWVAYISSSGGTIYYADTVKGRFTISRDNAKNTLFLQMTSLRSEDTAMYYCARRGYGNSFDYWGQGTTLTVSS VL: QIVLTQSPAIMSASPGEKVTMTCSASSSVSYMYWYQQKPGSSPRLLIYDTSNLASGVPVRFSGSGSGTSYSLTISRMEAEDAATYYCQQWSSYPPFGGGTKLEIK", "% live, FAB-saporin killing assay, %": 100}
{"BINDER": "SC93.216 (antibody, IgG1, V domains shown) VH: EVQLVESGGGLVKPGGSLKLSCAASGFTFSSYGMSWVRQTPEKRLEWVAAIHSNGDITYYPDTVKGRFTISRDNAKNTLYLQMSSLTSEDTALYYCANLAYWGQGTLVTVSA VL: EIQMTQSPSSMSASLGDRITITCQATQDIVKNLNWYQQKPGKSPSSLIYYATELAEGVPSRFSGSGSGSDYSLTISNLESEDFADYYCLQFYEFPLTFGAGTKLELK", "% live, FAB-saporin killing assay, %": 102}
{"BINDER": "SC93.221 (antibody, IgG1, V domains shown, murine, IgG1) VH: QIQLVQSGSELKKPGETVKISCKASGYTFTDYSINWVKQAPGKGFKWMGWINTYTGVPTYADDFKGRFAFSLETSATTAYLQINNLKNEDTATYFCARARYDGYYGRFDYWGQGTTLTVSS VL: DFLMTQTPLSLPVSLGDQASISCRSSQSIVHSNGDTYLEWFLQKPGQSPKLLIYKVSNRFSGVPDRFSGSGSGTDFTLKISRVEAEDLGVYYCFQGSHVPFTFGSGTKLEIK", "% live, FAB-saporin killing assay, %": 101}
